The values you see were collected from patent US20200361895A1.

Molecular target: NLRP3 (Homo sapiens)
Assay: THP-1 cells pyroptosis assay (LPS + nigericin, resazurin readout; THP IC50)
Assay type: cell-based
Parameters: Seed THP-1 cells (25,000 cells/well) containing 1.0 μg/ml LPS in 40 μl of RPMI medium; host or cells: THP-1 cells
Method: THP-1 cells (ATCC #TIB-202) were grown in RPMI containing L-glutamine (Gibco #11835) supplemented with 1 mM sodium pyruvate (Sigma #S8636) and penicillin (100 units/ml)/streptomycin (0.1 mg/ml) (Sigma #P4333) in 10% Fetal Bovine Serum (FBS) (Sigma #F0804). […] The cells were then counted and viability (>90%) checked by Trypan blue (Sigma #T8154). […] The following method step-by-step assay was followed for compound screening. • 1. […] Plates were read in an Envision reader at Ex 560 nm and Em 590 nm • 9. […]
pIC50: −log10 of the molar value. Where a name gives a salt, the structure may show the parent alone.
Reported pIC50 values for a set of compounds

{"compound": "COc1ccc(-c2cc(F)cc(C(C)C)c2NC(=O)NS(=O)(=O)c2ccn(C(C)C)n2)cn1", "pIC50": "≥ 6.00"}
{"compound": "CC(C)c1cc(F)cc(-c2cncnc2)c1NC(=O)NS(=O)(=O)c1cc(C(=O)N(C)C)n(C)n1 [Example 32, sodium salt]", "pIC50": "≥ 6.30"}
{"compound": "CC(C)c1cc(F)cc(-c2ccnc(N)c2)c1NC(=O)NS(=O)(=O)c1ccn(C(C)C)n1", "pIC50": "≥ 6.30"}
{"compound": "Cn1ccc(-c2ccc3c(c2NC(=O)NS(=O)(=O)c2ccn(C4CC4)n2)CCC3)cc1=O [Example 272, sodium salt]", "pIC50": "≥ 5.30"}
{"compound": "CC(C)c1cc(F)cc(-c2ccccc2)c1NC(=O)NS(=O)(=O)c1cc(CN(C)C)n(C)n1", "pIC50": "≥ 6.30"}
{"compound": "CC(C)c1cc(F)cc(-c2cncnc2)c1NC(=O)NS(=O)(=O)c1cc(CN(C)C)n(C)n1", "pIC50": "≥ 5.30"}
{"compound": "CC(C)c1cc(F)cc(-c2ccnc(C#N)c2)c1NC(=O)NS(=O)(=O)c1nccnc1C(F)F", "pIC50": "≥ 5.00"}
{"compound": "O=C(Nc1c(-c2ccnc(OC3CC3)c2)ccc2c1CCO2)NS(=O)(=O)c1ccn(C2CC2)n1 [Example 276, sodium salt]", "pIC50": "≥ 6.30"}
{"compound": "CC(C)c1cc(F)cc(-c2ccncc2)c1NC(=O)NS(=O)(=O)c1ccn(C(C)C)n1 [Example 10, ammonium salt]", "pIC50": "≥ 6.30"}
{"compound": "CC(C)c1cc(F)cc(-c2cccnc2)c1NC(=O)NS(=O)(=O)C1CCN(C(C)C)CC1", "pIC50": "≥ 5.00"}

q: For the record CN(C)c1cnc(S(=O)(=O)NC(=O)Nc2c(-c3ccncc3)cc(F)c3c2CCC3)cn1 , what value of pIC50 is listed for NLRP3 (Homo sapiens)?
a: ≥ 6.30

q: Same again, this time with COc1cc(-c2cc(F)cc(C(C)C)c2NC(=O)NS(=O)(=O)c2cnc(N(C)C)cn2)ccn1
a: ≥ 6.30

---

Reported IC50 values for a set of molecules
Biological target: NLRP3 (Homo sapiens, UniProt Q96P20)
Sequence (Q96P20 whole entry): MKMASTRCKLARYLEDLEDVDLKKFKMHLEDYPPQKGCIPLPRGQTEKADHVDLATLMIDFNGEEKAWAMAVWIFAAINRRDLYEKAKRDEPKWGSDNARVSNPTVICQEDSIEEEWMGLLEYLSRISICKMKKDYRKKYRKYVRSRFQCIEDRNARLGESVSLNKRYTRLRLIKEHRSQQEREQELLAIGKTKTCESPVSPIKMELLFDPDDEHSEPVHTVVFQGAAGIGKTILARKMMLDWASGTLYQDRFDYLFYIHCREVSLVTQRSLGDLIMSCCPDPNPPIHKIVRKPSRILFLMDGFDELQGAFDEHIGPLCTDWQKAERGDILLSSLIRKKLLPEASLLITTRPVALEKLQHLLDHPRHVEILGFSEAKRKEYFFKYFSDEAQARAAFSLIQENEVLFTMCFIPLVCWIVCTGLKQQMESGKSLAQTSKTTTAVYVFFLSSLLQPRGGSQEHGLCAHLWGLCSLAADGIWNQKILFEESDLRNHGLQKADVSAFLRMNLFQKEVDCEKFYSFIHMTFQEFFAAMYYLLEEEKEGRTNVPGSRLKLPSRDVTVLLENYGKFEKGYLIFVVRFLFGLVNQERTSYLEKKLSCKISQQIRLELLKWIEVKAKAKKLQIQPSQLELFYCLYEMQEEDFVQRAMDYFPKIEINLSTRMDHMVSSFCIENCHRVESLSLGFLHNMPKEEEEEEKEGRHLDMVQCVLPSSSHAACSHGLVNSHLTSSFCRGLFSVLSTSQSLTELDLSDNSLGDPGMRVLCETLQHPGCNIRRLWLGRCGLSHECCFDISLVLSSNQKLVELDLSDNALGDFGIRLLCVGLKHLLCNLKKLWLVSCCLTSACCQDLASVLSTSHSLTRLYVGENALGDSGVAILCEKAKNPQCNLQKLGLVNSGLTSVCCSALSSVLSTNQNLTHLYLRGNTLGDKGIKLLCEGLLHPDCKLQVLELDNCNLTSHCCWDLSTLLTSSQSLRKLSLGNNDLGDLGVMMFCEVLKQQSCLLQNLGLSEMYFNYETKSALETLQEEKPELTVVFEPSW
Test: THP-1 cells pyroptosis assay (LPS + nigericin, resazurin readout; THP IC50)
Type: cell-based
Parameters: Seed THP-1 cells (25,000 cells/well) containing 1.0 μg/ml LPS in 40 μl of RPMI medium; host or cells: THP-1 cells
Counter-ions that a name gives are not always drawn.

Solved entries (count: 5):
{"molecule": "CN(C)CC(C)(C)n1ccc(S(=O)(=O)NC(=O)Nc2c(-c3ccnc(C#N)c3)ccc3c2CCC3)n1", "experimental-system": "NLRP3 (Homo sapiens, UniProt Q96P20)", "IC50": "≤ 500 nM"}
{"molecule": "COc1cc(-c2cc(F)cc(C(C)C)c2NC(=O)NS(=O)(=O)c2cn(C(C)C)cn2)ccn1", "experimental-system": "NLRP3 (Homo sapiens, UniProt Q96P20)", "IC50": "≤ 500 nM"}
{"molecule": "COc1cc(-c2ccc3c(c2NC(=O)NS(=O)(=O)c2ccn(C(C)(C)CN4CC(C)C4)n2)CCC3)ccn1", "experimental-system": "NLRP3 (Homo sapiens, UniProt Q96P20)", "IC50": "≤ 500 nM"}
{"molecule": "N#Cc1cc(-c2ccc3c(c2NC(=O)NS(=O)(=O)c2ccn(C4CC4)n2)CCC3)ccn1 [Example 222, sodium salt]", "experimental-system": "NLRP3 (Homo sapiens, UniProt Q96P20)", "IC50": "≤ 500 nM"}
{"molecule": "CC(C)n1ccc(S(=O)(=O)NC(=O)Nc2c(-c3ccnc(CO)c3)ccc3c2CCC3)n1", "experimental-system": "NLRP3 (Homo sapiens, UniProt Q96P20)", "IC50": "≤ 500 nM"}

Could you now look at the following molecule, please?
q: Sample COc1cc(-c2ccc3c(c2NC(=O)NS(C)(=O)=O)CCC3)ccn1 — what was its IC50?
a: ≤ 1000 nM

---

Molecular target: NLRP3 (Homo sapiens)
Test: THP-1 cells pyroptosis assay (LPS + nigericin, resazurin readout; THP IC50)
Type: cell-based
Set-up: Seed THP-1 cells (25,000 cells/well) containing 1.0 μg/ml LPS in 40 μl of RPMI medium; host or cells: THP-1 cells
pIC50: −log10 of the molar value. Structures can show the parent of a compound that is named as a salt.
assay-endpoint: pIC50

{"molecule": "COc1cc(-c2ccc3c(c2NC(=O)NS(=O)(=O)c2cn(C(C)C)nn2)CCC3)ccn1 [Example 234, sodium salt]", "result": "≥ 6.30"}
{"molecule": "CC(C)c1cc(F)cc(-c2ccnc(C(N)=O)c2)c1NC(=O)NS(=O)(=O)c1cc(CN(C)C)n(C)n1", "result": "≥ 5.30"}
{"molecule": "CC(C)c1cc(F)cc(-c2ccnc(C#N)c2)c1NC(=O)NS(=O)(=O)c1ccc(=O)n(C(C)C)c1", "result": "≥ 6.30"}
{"molecule": "COc1cc(-c2cc(F)cc(C(C)C)c2NC(=O)NS(=O)(=O)c2cc(CN(C)C)n(C(C)C)n2)ccn1", "result": "≥ 6.30"}

q: For the record N#Cc1cc(-c2ccc3c(c2NC(=O)NS(=O)(=O)c2ccn(CC4CC4)n2)CCC3)ccn1 , what value of pIC50 is listed for NLRP3 (Homo sapiens)?
a: ≥ 6.30

---

Reported IC50 values for a set of compounds
Target: NLRP3 (Homo sapiens, UniProt Q96P20)
Experiment: Human whole blood IL1β release assay (LPS + nigericin, AlphaLisa IL-1β; HWB IC50)
Type: cell-based
Parameters: Human whole blood in Li-heparin tubes was obtained from healthy donors from a volunteer donor panel; from tissue; host or cells: human whole blood from healthy donors
Settings: IL-1β release
Structures can show the parent of a compound that is named as a salt.

Solved entries (count: 8):
{"compound": "O=C(Nc1c(-c2ccnc(OC(F)F)c2)ccc2c1CCO2)NS(=O)(=O)c1ccn(C2CC2)n1 [Example 277, sodium salt]", "experimental-system": "NLRP3 (Homo sapiens, UniProt Q96P20)", "IC50": "≤ 0.5 µM"}
{"compound": "COc1cc(-c2ccc3c(c2NC(=O)NS(=O)(=O)c2ccn(C(C)C)n2)CCCC3)ccn1 [Example 213]", "experimental-system": "NLRP3 (Homo sapiens, UniProt Q96P20)", "IC50": "≤ 5 µM"}
{"compound": "CC(C)n1cc(S(=O)(=O)NC(=O)Nc2c(-c3ccnc(C#N)c3)ccc3c2CCC3)ncc1=O [Example 72, sodium salt]", "experimental-system": "NLRP3 (Homo sapiens, UniProt Q96P20)", "IC50": "≤ 1 µM"}
{"compound": "CC(C)n1cc(S(=O)(=O)NC(=O)Nc2c(-c3ccncc3)cc(F)c3c2CCC3)ccc1=O [Example 91]", "experimental-system": "NLRP3 (Homo sapiens, UniProt Q96P20)", "IC50": "≤ 1 µM"}
{"compound": "CN(C)CC(C)(C)n1ccc(S(=O)(=O)NC(=O)Nc2c(-c3ccnc(OC4CC4)c3)ccc3c2CCC3)n1 [Example 200, sodium salt]", "experimental-system": "NLRP3 (Homo sapiens, UniProt Q96P20)", "IC50": "≤ 0.5 µM"}
{"compound": "COc1cc(-c2ccc3c(c2NC(=O)NS(=O)(=O)c2ccn(C(C)(C)CN(C)C)n2)CCC3)ccn1 [Example 69]", "experimental-system": "NLRP3 (Homo sapiens, UniProt Q96P20)", "IC50": "≤ 0.5 µM"}
{"compound": "[2H]C([2H])([2H])Oc1cc(-c2ccc3c(c2NC(=O)NS(=O)(=O)c2ccn(C4CCC4)n2)CCO3)ccn1 [Example 280, sodium salt]", "experimental-system": "NLRP3 (Homo sapiens, UniProt Q96P20)", "IC50": "≤ 0.5 µM"}
{"compound": "COc1cc(-c2ccc3c(c2NC(=O)NS(=O)(=O)OC2CCN(C)C2)CCC3)ccn1 (stereo not shown) [Example 284]", "experimental-system": "NLRP3 (Homo sapiens, UniProt Q96P20)", "IC50": "≤ 1 µM"}

q: Sample CCOc1cc(-c2cc(F)cc(C(C)C)c2NC(=O)NS(=O)(=O)c2ccn(C(C)C)n2)ccn1 [Example 24] — what was its IC50?
a: ≤ 1 µM

q: Same again, this time with O=C(Nc1c(-c2ccnc(OC(F)F)c2)ccc2c1CCO2)NS(=O)(=O)c1ccn(C2CCC2)n1 [Example 275, sodium salt]
a: ≤ 0.5 µM

q: Same again, this time with C[C@@H](O)Cn1ccc(S(=O)(=O)NC(=O)Nc2c(-c3ccnc(C#N)c3)ccc3c2CCC3)n1 [Example 182, sodium salt]
a: ≤ 0.5 µM

q: Same again, this time with Cc1cc(C)nc(S(=O)(=O)NC(=O)Nc2c(-c3ccncc3)cc(F)c3c2CCC3)n1 [Example 117]
a: ≤ 1 µM

q: Same again, this time with CCn1nc(S(=O)(=O)NC(=O)Nc2c(-c3ccnc(OC)c3)cc(F)c3c2CCC3)cc1CN(C)C [Example 66]
a: ≤ 0.5 µM

q: Same again, this time with COc1cc(-c2ccc3c(c2NC(=O)NS(=O)(=O)c2cnn(C4CC4)c2)CCC3)ccn1 [Example 145]
a: ≤ 1 µM

q: Same again, this time with CN(C)CC(C)(C)n1ccc(S(=O)(=O)NC(=O)Nc2c(-c3ccnc(C#N)c3)ccc3c2CCC3)n1 [Example 202]
a: ≤ 0.5 µM

q: Same again, this time with CC(C)n1cc(S(=O)(=O)NC(=O)Nc2c(-c3ccnc(C#N)c3)ccc3c2CCC3)ccc1=O [Example 71, sodium salt]
a: ≤ 1 µM

q: Same again, this time with CC(C)c1cc(F)cc(-c2ccnc(C#N)c2)c1NC(=O)NS(=O)(=O)c1cc(N(C)C)cnn1 [Example 118]
a: ≤ 1 µM

q: Same again, this time with COc1cc(-c2ccc3c(c2NC(=O)NS(=O)(=O)c2cnn(C(C)C)c2)CCC3)ccn1 [Example 250, sodium salt]
a: ≤ 0.5 µM
